tgt: T1, IGF-IIE (amino acids 1-104 of pro-IGF-II) (human, UniProt P01344 25-128)
T1 construct: Biotinylated in the selections; also called IGF-IIE (104aa)
assay.details: competition SPR (BIACORE T100), affinity in solution, free ligand read on huIR-A ECD; measurement 1
Method: Competition SPR (BIACORE®) was performed under conditions of partially mass-transport limited conditions according to previously described methodology (Nieba et al., 1996). Approximately 16,700 relative response units (RU) of huIR-A (-exon11) ectodomain was coupled by standard amine chemistry to a BIACORE® CM5 chip sensor. Uncoated flow-cell surface was used as a reference. […] Regeneration of the surface was achieved by injection of 30 ul NaCltrate/NaCl pH 4.5. […]
parameter.measured: Kd

M0073-C11 Fab (Fab, V domains shown) VH: EVQLLESGGGLVQPGGSLRLSCAASGFTFSPYDMWWVRQAPGKGLEWVSSISSSGGITAYADSVKGRFTISRDNSKNTLYLQMNSLRAEDTAVYYCARAGYSSSWGYYYYGMDVWGQGTTVTVSS VL: QSALTQPPSVSVSPGQTASITCSGDRLGDKYASWYQQKPGQSPVLVIYQDTKRPSGIPERFSGSNSGSTATLTISGTQAMDEADYYCQAWDSSTVVFGGGTKLTVL: 20.2 nM
M0072-G06 Fab (Fab, V domains shown, soluble Fab (sFab); also called R0032-C05) VH: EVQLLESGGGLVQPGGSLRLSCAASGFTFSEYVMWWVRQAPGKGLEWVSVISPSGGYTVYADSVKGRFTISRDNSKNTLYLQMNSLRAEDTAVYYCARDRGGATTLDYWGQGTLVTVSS VL: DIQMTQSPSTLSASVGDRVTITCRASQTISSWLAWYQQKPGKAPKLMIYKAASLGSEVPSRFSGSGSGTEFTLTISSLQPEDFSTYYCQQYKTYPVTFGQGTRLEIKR: 6.36 nM
M0070-H08 Fab (Fab, V domains shown, soluble Fab (sFab); also called R0032-A07) VH: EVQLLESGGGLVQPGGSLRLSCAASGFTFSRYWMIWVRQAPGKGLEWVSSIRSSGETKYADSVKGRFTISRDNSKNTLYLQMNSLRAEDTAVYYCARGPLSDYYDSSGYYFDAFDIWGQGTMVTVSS VL: DIQMTQSPSSLSASAGDRVTITCRASQSISSYLNWYQQKPGKAPNLLIYTTSNLQGGVPSRFSGSGSGTDFTLTISSLQPEDFATYYCQQGYSFPLTFGGGTKVEIKR: 4.83 nM
M0063-F02 Fab (Fab, V domains shown, soluble Fab (sFab); also called R0032-A01) VH: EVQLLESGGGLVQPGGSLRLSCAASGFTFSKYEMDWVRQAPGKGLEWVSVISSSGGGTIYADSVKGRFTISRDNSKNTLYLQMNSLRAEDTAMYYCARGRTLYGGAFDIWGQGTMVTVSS VL: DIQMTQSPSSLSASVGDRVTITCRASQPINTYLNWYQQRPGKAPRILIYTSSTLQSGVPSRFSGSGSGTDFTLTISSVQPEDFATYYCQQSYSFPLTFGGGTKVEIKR: 2.78 nM
